assay: Half life in ICR mouse at 1 mg/kg, iv measured for 24 hrs by LC-MS/MS analysis; assay type: ADME, organism-based; settings: in vivo
OBSERVED PROPERTY: half-life (h)

COMPOUND: Cc1nc2cccc(N)c2c(=O)n1C1CCC(=O)NC1=O (configuration not stated) [AVADOMIDE]
DATA VALUE: 1.99

COMPOUND: Cc1nc2cccc(NCc3ccc(CN4CCCCCC4)cc3F)c2c(=O)n1C1CCC(=O)NC1=O (configuration not stated)
DATA VALUE: 2.01

====

experiment: Volume of distribution at steady state in ICR mouse at 1 mg/kg, iv measured for 24 hrs by LC-MS/MS analysis; type: ADME, organism-based; conditions: in vivo, read-out: Vdss
OBSERVED PROPERTY: Vd (L/kg)

(1) Cc1nc2cccc(N)c2c(=O)n1C1CCC(=O)NC1=O (configuration not stated) [AVADOMIDE]
(2) Cc1nc2cccc(NCc3ccc(CN4CCCCCC4)cc3F)c2c(=O)n1C1CCC(=O)NC1=O (configuration not stated)
Recorded Vd values differ for 1 and 2 ; which one is higher? # answer = label of selected item
2
